molecular target: Luciferin 4-monooxygenase (Photinus pyralis) (UniProt P08659); assay: inhibition of purified Photinus pyralis luciferase – biochemical, luminescence, purified enzyme, 2006 set, primary screen (AID 1141); details: purified firefly luciferase, SteadyGlo luminescence, 30 min; higher = more signal, called active from +8 up or from −8 down;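 also: cell-free assay with purified firefly luciferase at 100 ng per well in PBS; test concentration not given here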
Sequence (P08659 whole entry, looked up): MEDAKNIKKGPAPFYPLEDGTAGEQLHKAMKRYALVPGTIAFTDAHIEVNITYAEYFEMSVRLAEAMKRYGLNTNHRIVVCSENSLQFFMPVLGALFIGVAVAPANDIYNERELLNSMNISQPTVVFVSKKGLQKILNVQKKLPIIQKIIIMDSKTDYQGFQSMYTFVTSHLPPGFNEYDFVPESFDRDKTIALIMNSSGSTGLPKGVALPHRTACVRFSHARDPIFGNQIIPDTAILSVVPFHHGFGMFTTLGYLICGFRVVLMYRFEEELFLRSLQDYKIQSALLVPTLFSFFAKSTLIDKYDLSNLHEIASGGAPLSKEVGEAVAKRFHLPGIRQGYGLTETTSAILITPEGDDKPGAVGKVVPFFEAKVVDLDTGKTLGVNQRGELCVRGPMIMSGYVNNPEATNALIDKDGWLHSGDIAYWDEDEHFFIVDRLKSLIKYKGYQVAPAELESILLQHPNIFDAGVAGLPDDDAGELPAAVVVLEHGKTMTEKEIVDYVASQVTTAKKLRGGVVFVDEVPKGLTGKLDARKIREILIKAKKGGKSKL
The source made the active and inactive calls.
Catalogue of z-score readings, one per entry.
PROPERTY: z-score

>>> assay_result("C=CC[C@@]1(C(=O)NCCN2CCOCC2)N=C(c2ccc(OCCCO)cc2)O[C@@H]1c1ccccc1")
"-0.43 (inactive)"
>>> assay_result("COCCCNC(=O)[C@@]1(Cc2ccccc2CN=[N+]=[N-])N=C(c2ccc(OCCCO)cc2)O[C@H]1c1ccccc1N=[N+]=[N-]")
"-4.87 (inactive)"
>>> assay_result("C[C@]12C(=O)N(CCCO)[C@@H]3C(=O)N(c4ccc(Cl)cc4)CC=CC31O[C@@H]1/C=C\\CCCOC(=O)C12 (some centres not stated)")
"-0.299 (inactive)"
>>> assay_result("CC[C@@H]1[C@@H]2C3C(=O)N(CC)C(=O)C3CC(=O)[C@@H]2[C@H](c2ccc(C)cc2)N1S(=O)(=O)c1ccc(C)cc1 (some centres not stated)")
"1.46 (inactive)"
>>> assay_result("COc1ccccc1CN1C(=O)c2ccccc2[C@](Cc2ccccc2I)(C(=O)NCCN2CCOCC2)[C@@H]1c1ccc(CO)cc1")
"-1.06 (inactive)"
>>> assay_result("CCCC=C(CCC)[C@@H](NC(=O)Cc1ccccc1)c1ccc(C(=O)OC)cc1")
"1.54 (inactive)"
>>> assay_result("COCCOC(=O)N1C(=O)[C@@]2(c3cc(C#CCC(C(=O)OC)C(=O)OC)ccc31)[C@H](C(=O)N1CCCCCCC1)[C@H]1C(=O)O[C@H](c3ccccc3)[C@H](c3ccccc3)N1[C@@H]2c1ccc(O)cc1")
"0.414 (inactive)"

###

test: JC-1 mitochondrial signal, unstimulated myeloma cells – cell-based, JC-1 fluorescence, RPMI8226, 24 h, 100 nL compound, profiling panel (AID 1169); conditions: JC-1 mitochondrial potential fluorescence, higher = more signal; also: test concentration not given here
Catalogue of z-score readings, one per entry.
PROPERTY: z-score

>>> assay_result("C=CCC(OC(C)=O)[C@@H]1[C@@H](N(Cc2cc3ccccc3o2)C(=O)Cc2ccc(OC)cc2)c2cc(OCCCO)ccc2N1C(=O)c1ccc(-c2ccccc2)cc1 (stereo not given in full)")
-0.392
>>> assay_result("CC(C)CN1C(=O)[C@@]2(Cc3ccccc31)c1ccccc1C(=O)N(Cc1ccccc1)[C@H]2c1ccc(CO)cc1")
0.0482
>>> assay_result("CN(C)CCCNC(=O)[C@@]1(Cc2ccccc2I)c2ccccc2C(=O)N(Cc2ccccc2Cl)[C@H]1c1ccc(CO)cc1")
-0.935
>>> assay_result("O=C1O[C@H](c2ccccc2)[C@H](c2ccccc2)N2[C@H]1[C@@H](C(=O)N1CCCCCCC1)[C@]1(C(=O)Nc3ccc(C#CCCO)cc31)[C@H]2c1ccc(OCCO)cc1")
-0.737
>>> assay_result("COc1ccc(C(=O)Nc2ccc(CN3C(=O)[C@]4(O[C@H](CCn5cc([C@H](O)c6ccccc6)nn5)[C@@H]([Si](C)(C)c5ccc(OC)cc5)[C@@H]4C)c4ccccc43)cc2)cc1")
-1.12
>>> assay_result("CC(C)NC(=O)[C@@]1(Cc2ccccc2I)c2ccccc2C(=O)N(Cc2ccccc2C(F)(F)F)[C@H]1c1ccc(CO)cc1")
-0.476
>>> assay_result("COCCOC(=O)N1C(=O)[C@@]2(c3cc(C#Cc4ccc(OC)cc4)ccc31)[C@H](C(=O)N1CCc3cc(OC)c(OC)cc3C1)[C@H]1C(=O)O[C@H](c3ccccc3)[C@H](c3ccccc3)N1[C@@H]2c1ccc(OCCO)cc1")
-0.223
>>> assay_result("O=C(CS)NCCCCCNC(=O)[C@@H]1C[C@@H]2C(=O)N3CCC[C@H]3C(=O)N2[C@@H]1c1ccc(O)cc1")
-0.282
>>> assay_result("COC(=O)[C@]1(Cc2ccccc2CN=[N+]=[N-])N=C(c2ccc(OCCCO)cc2)O[C@@H]1c1ccccc1")
-1.05
>>> assay_result("CCCCC(O)C1C=CC2C(=O)N(Cc3ccccc3)C(=O)C2N1n1cnnc1 (stereo not given)")
-0.874
>>> assay_result("COc1ccc(C#Cc2ccc3c(c2)[C@]2(C(=O)N3)[C@H](c3ccc(OCCO)cc3)N3[C@H](c4ccccc4)[C@H](c4ccccc4)OC(=O)[C@H]3[C@@H]2C(=O)N2CCN(c3ncccn3)CC2)cc1")
-0.507
>>> assay_result("COCCOC(=O)N1C(=O)[C@@]2(c3cc(C#CCNC(N)=O)ccc31)[C@H](C(N)=O)[C@H]1C(=O)O[C@H](c3ccccc3)[C@H](c3ccccc3)N1[C@@H]2c1ccc(OCCO)cc1")
-0.634
>>> assay_result("COc1cc(NN2C(C(O)c3ccc(I)cc3)C=CC3C(=O)N(C)C(=O)C32)cc(OC)c1OC (stereo not given)")
-0.335
>>> assay_result("COCCOC(=O)N1C(=O)[C@@]2(c3cc(C#Cc4ccc(OC)cc4)ccc31)[C@H](C(N)=O)[C@H]1C(=O)O[C@H](c3ccccc3)[C@H](c3ccccc3)N1[C@@H]2c1ccc(OCCO)cc1")
-0.57
>>> assay_result("O=C(NCc1ccccc1)[C@]1(Cc2ccccc2)N=C(c2ccc(OCCCO)cc2)O[C@@H]1c1ccccc1")
-1.21
>>> assay_result("COc1cc2c(cc1OC)CN(C(=O)[C@@H]1[C@H]3C(=O)O[C@H](c4ccccc4)[C@H](c4ccccc4)N3[C@H](c3ccc(O)cc3)[C@@]13C(=O)Nc1ccc(C#CCNC(N)=O)cc13)CC2")
-0.0414
>>> assay_result("C=C(COC)C(=O)CC[C@H](OC(=O)c1ccccc1-c1ccccc1C(=O)O)c1ccc(OCCO)cc1")
-0.463
>>> assay_result("CC(C)CNC(=O)[C@@]1(C)c2ccccc2C(=O)N(Cc2ccccc2)[C@H]1c1ccc(CO)cc1")
0.0136
>>> assay_result("C=C(CCCC)/C(=C/C[C@H](OC(=O)c1ccncc1)c1ccc(CO)o1)c1cc(C(=O)OC)ccc1OC")
-0.375
>>> assay_result("C=CCOC(=O)[C@H]1[C@@H]2C(=O)O[C@@H](c3ccccc3)[C@@H](c3ccccc3)N2[C@@H](c2ccc(OCCOC(=O)[C@H]3C[C@H]4C(=O)N[C@@H](CCCCN(C)C)C(=O)N4[C@H]3c3ccc(O)cc3)cc2)[C@]12C(=O)Nc1ccccc12")
-0.838
>>> assay_result("COc1ccc(C#Cc2ccc3c(c2)[C@]2(C(=O)N3)[C@H](C(N)=O)[C@H]3C(=O)O[C@H](c4ccccc4)[C@H](c4ccccc4)N3[C@@H]2c2ccc(O)cc2)cc1")
-1.1
>>> assay_result("C[N+](C)(C)CCCCNC(=O)[C@H]1C[C@H]2C(=O)NCC(=O)N2[C@H]1c1ccc(O)cc1")
-0.797
>>> assay_result("CN(C)CCCN1C(=O)[C@@]2(Cc3ccccc31)c1ccccc1C(=O)N(Cc1ccccc1)[C@H]2c1ccc(CO)cc1")
-0.484
>>> assay_result("COC(=O)C(CC#Cc1ccc2c(c1)[C@]1(C(=O)N2)[C@H](c2ccc(OCCO)cc2)N2[C@H](c3ccccc3)[C@H](c3ccccc3)OC(=O)[C@H]2[C@@H]1C(=O)O)C(=O)OC")
-0.336
>>> assay_result("COC(=O)[C@@]1(Cc2ccccc2)[C@H]2c3cc(C(=O)N(C)C)n(Cc4ccc(O)c(OC)c4)c3C[C@H]2CN1C(=O)c1ccccc1")
-0.671
